system: c-Abl (mouse); assay: phosphorylation enrichment, bacterial display (enrichment ratio); higher = better substrate or ligand; peptides without Tyr show the background
Entries and their phosphorylation enrichment values follow.

>>> df
                construct_sequence           reported_endpoint  readout_value
0   YGLQAYTKVKT [ALDH2_Y502_E504K]  phosphorylation enrichment          0.614
1  EIIPFYGMSSY [FNDC3B_Y175_T179S]  phosphorylation enrichment          0.587
2     ATAKGYEPDAS [OTC_Y223_P220A]  phosphorylation enrichment          0.598

What does the record list as phosphorylation enrichment for AMIADYMFWLG [SPATA16_Y290] ?
1.24

What does the record list as phosphorylation enrichment for HEVHIYEKSGA [ARPC1B_Y35] ?
1.69

What does the record list as phosphorylation enrichment for PVQAAYQKVEA [HBB_Y131_V135E] ?
0.879

What does the record list as phosphorylation enrichment for IGNGYYFRVFS [MYBPC3_Y1136] ?
0.967

What does the record list as phosphorylation enrichment for SAVVPYEPPEV [TP53_Y220_V216A] ?
0.649

What does the record list as phosphorylation enrichment for CLLHCYFSQIR [MCM3AP_Y873] ?
0.667

What does the record list as phosphorylation enrichment for QKMADYSNKLY [PDPR_Y104] ?
0.555

What does the record list as phosphorylation enrichment for MCITQYERESQ [PRNP_Y218] ?
0.648

What does the record list as phosphorylation enrichment for IKETHYMVDRC ?
0.581

What does the record list as phosphorylation enrichment for LITTLYIGFLD [KCNQ1_Y267_G272D] ?
2.36

----------
molecular target: EPHB2 (UniProt P29323); assay: phosphorylation enrichment, bacterial display (enrichment ratio); higher = better substrate or ligand; peptides without Tyr show the background
Sequence (P29323 whole entry, looked up): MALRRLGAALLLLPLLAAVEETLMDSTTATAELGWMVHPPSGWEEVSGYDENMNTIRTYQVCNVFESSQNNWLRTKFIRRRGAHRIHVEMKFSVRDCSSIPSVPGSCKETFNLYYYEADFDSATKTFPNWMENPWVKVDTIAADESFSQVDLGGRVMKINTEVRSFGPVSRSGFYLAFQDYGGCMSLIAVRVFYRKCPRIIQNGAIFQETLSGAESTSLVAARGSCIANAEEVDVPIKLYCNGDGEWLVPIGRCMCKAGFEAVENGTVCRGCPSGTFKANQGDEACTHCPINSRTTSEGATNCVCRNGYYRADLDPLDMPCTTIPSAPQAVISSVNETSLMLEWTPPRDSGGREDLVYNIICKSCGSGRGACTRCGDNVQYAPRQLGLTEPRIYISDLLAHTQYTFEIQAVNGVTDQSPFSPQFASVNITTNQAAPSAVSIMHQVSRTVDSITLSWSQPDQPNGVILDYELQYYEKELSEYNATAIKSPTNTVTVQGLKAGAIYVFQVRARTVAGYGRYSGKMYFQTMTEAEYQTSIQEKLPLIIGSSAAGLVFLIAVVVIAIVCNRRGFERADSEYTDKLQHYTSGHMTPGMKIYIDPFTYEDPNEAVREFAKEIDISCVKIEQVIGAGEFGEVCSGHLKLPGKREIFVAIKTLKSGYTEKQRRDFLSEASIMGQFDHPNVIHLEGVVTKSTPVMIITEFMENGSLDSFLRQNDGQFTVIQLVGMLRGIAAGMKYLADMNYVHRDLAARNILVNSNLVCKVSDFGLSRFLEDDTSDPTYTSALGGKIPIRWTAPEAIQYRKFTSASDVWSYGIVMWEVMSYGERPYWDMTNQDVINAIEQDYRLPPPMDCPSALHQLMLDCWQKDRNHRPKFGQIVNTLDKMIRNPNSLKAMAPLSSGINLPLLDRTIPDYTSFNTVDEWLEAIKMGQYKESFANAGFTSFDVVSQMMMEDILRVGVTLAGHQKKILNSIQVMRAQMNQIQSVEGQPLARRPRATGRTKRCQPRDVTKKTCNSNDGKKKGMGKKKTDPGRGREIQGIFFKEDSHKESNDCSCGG
Entries and their phosphorylation enrichment values follow.
Answer as a number with no unit attached.

Reference set (3 entries):
>>> df
         construct_sequence           reported_endpoint  readout_value
0  FTYDPYSEEDP [IL2RB_Y387]  phosphorylation enrichment          0.581
1  RDSQLYAVDYE [MRPS34_Y34]  phosphorylation enrichment           1.05
2  DVELLYPVKEK [EPHX1_Y283]  phosphorylation enrichment          0.513

Query phosphorylation enrichment on EPHB2 (UniProt P29323) for SVVVPYGPPEV [TP53_Y220_E221G]
0.543

Query phosphorylation enrichment on EPHB2 (UniProt P29323) for VEKGSYSALRA [ABCC2_Y845_L849R]
0.296

Query phosphorylation enrichment on EPHB2 (UniProt P29323) for DRPASYLEKVR [KRT13_Y118_L115P]
0.247

----------
Entries and their phosphorylation enrichment values follow.
biological target: Hck (UniProt P08631); assay: phosphorylation enrichment, bacterial display (enrichment ratio); higher = better substrate or ligand; peptides without Tyr show the background
Sequence (P08631 whole entry, looked up): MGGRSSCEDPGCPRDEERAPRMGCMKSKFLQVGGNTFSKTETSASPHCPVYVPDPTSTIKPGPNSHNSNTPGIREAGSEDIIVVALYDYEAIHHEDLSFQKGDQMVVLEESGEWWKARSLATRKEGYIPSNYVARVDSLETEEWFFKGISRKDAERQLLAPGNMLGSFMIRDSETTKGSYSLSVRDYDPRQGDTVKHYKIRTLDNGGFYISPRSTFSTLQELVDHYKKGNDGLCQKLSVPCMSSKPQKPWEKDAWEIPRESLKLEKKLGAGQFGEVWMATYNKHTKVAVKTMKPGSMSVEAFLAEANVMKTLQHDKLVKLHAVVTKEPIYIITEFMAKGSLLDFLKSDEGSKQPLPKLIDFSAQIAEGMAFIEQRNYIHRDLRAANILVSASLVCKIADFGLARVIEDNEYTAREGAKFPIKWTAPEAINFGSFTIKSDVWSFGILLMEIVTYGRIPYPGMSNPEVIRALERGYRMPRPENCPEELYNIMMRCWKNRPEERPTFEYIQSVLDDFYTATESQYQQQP

In [3]: df
Out[3]:
                 construct_sequence           reported_endpoint  readout_value
0  RASDFYSQQMA [GBP6_Y334_A331S_YF]  phosphorylation enrichment          0.539
1             RGDCMYAPLLG [AR_Y269]  phosphorylation enrichment           10.9
2         MWGSDYVQLSR [MAP3K4_Y582]  phosphorylation enrichment           1.12
3        EEDPEYKKKFR [FAM161A_Y278]  phosphorylation enrichment          0.487
4     LMQAEYWHDPI [PPT1_Y185_V181M]  phosphorylation enrichment          0.769

What does the record list as phosphorylation enrichment for RPLVVYPWTQR [HBB_Y36_L32P] ?
0.407

What does the record list as phosphorylation enrichment for TIMTNYNPNYC [ALK_Y1092_D1091N] ?
0.548

What does the record list as phosphorylation enrichment for GRVLGYGTFGK [FLT4_Y853_A855T] ?
0.417

What does the record list as phosphorylation enrichment for PLQNTYNYNVL [SLC4A1_Y553_K551N] ?
0.6

What does the record list as phosphorylation enrichment for ISSLRYKLLEE [TRPC6_Y896_E897K] ?
0.47

----------
target: Grb2 SH2 (UniProt P62993); test: SH2 binding enrichment of the phosphorylated peptide, bacterial display (enrichment ratio); higher = better substrate or ligand; peptides without Tyr show the background
Sequence (P62993 whole entry, looked up): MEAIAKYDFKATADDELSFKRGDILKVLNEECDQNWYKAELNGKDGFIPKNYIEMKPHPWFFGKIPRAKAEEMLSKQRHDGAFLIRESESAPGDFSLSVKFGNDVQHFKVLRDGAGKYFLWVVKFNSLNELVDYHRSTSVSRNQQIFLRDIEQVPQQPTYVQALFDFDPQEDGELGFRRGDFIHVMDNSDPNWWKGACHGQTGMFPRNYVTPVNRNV
Rule: T for SH2 binding enrichment not less than 0.9, F for anything less.

Sample answers from the record:
In [3]: df
Out[3]:
                  construct_sequence  answer_label
0            RNAAEYLLSSG [ABL1_Y139]             T
1       FQLPFYNMVPS [BMPR1A_Y458_YF]             T
2      LATINYPFEKG [NDUFS8_Y84_P79L]             T
3     RTESQYQENRG [LRCH3_Y354_R350T]             T
4   ALLVFYAATIA [SLC20A2_Y187_P184L]             F
5    PLQNTYNYNVL [SLC4A1_Y553_K551N]             F
6  KAIMTYVPSFF [ACTN4_Y260_S262P_YF]             T
7       QRKPSYNQLPS [BRCA2_Y71_A75P]             F

Assess whether reported SH2 binding enrichment for REESTYLPLTS [ICAM3_Y527] sits at 0.9 or higher.
T

Assess whether reported SH2 binding enrichment for KVDKEYEVRVR [GHR_Y226] sits at 0.9 or higher.
T

Assess whether reported SH2 binding enrichment for ADCRFYTFPQM [GAMT_Y223_A224T_YF] sits at 0.9 or higher.
T

----------
target: Grb2 SH2 (UniProt P62993); assay: SH2 binding enrichment of the phosphorylated peptide, bacterial display (enrichment ratio); higher = better substrate or ligand; peptides without Tyr show the background
Reported endpoint: SH2 binding enrichment
Answer as a number with no unit attached.

Reference set (4 entries):
>>> print(df.to_string())
                  construct_sequence       reported_endpoint  readout_value
0     AVPSLYASGRT [ACTA1_Y145_L142P]  SH2 binding enrichment          0.818
1      DKATEYIQFVR [MAX_Y70_M74V_YF]  SH2 binding enrichment          0.789
2  FQKDVYNIPPS [NEDD9_Y177_D178N_YF]  SH2 binding enrichment              1
3       FPRAWYRRSIA [KIAA1109_Y4272]  SH2 binding enrichment          0.801

Query SH2 binding enrichment on Grb2 SH2 (UniProt P62993) for QNAGDYFDLFG [PTPN11_Y62_T59A_YF]
0.997

----------
system: Fer (mouse); experiment: phosphorylation enrichment, bacterial display (enrichment ratio); higher = better substrate or ligand; peptides without Tyr show the background
Rule: 1.0 for phosphorylation enrichment not less than 0.5, 0.0 for anything less.

Sample answers from the record:
>>> print(df.to_string())
                  construct_sequence  answer_label
0            QMIETYFDFRL [NSMF_Y506]           1.0
1     PYYASYPPSPD [GDAP2_Y491_T489A]           1.0
2  GHNDVYILEHV [GRIN2A_Y1423_S1425L]           1.0

Assess whether reported phosphorylation enrichment for VECRVYAEDPF [PCCA_Y401_YF] sits at 0.5 or higher.
1.0

Assess whether reported phosphorylation enrichment for GGFNNYGFGSD [HNRNPH3_Y159_N163S_YF] sits at 0.5 or higher.
0.0

----------
target: Grb2 SH2 (UniProt P62993); experiment: SH2 binding enrichment of the phosphorylated peptide, bacterial display (enrichment ratio); higher = better substrate or ligand; peptides without Tyr show the background
Rule: 1 (yes) for SH2 binding enrichment not less than 0.8, 0 (no) for anything less.

Sample answers from the record:
In [3]: df
Out[3]:
                 construct_sequence  answer_label
0     RGDIFYTSKLW [AKR1C3_Y81_E77G]       1 (yes)
1         PLGKDYRKAEG [MAP1A_Y1909]       1 (yes)
2  VNKIFHPDFIV [LIG3_Y768_Y768H_YF]       1 (yes)
3   KNKNRCKNILP [PTPN11_Y279_Y279C]       1 (yes)
4    ENGPYYASYPP [GDAP2_Y488_T489A]        0 (no)

Assess whether reported SH2 binding enrichment for HFGCVYYGTLL [MET_Y1093_H1094Y] sits at 0.8 or higher.
1 (yes)

Assess whether reported SH2 binding enrichment for FIGVTYKNEED [PDGFRA_Y993_YF] sits at 0.8 or higher.
1 (yes)

Assess whether reported SH2 binding enrichment for GKGGSYSKAES [HLA-E_Y341_W346S] sits at 0.8 or higher.
0 (no)

Assess whether reported SH2 binding enrichment for RLYARYFQGDL [PDK3_Y337] sits at 0.8 or higher.
1 (yes)

The measurements presented in this section are drawn from the supplement of paper PMC10065799.
